Target: full-length kinase/Nluc fusion proteins (Homo sapiens, UniProt Q12851)
Sequence (Q12851 whole entry, the tested form may be a part): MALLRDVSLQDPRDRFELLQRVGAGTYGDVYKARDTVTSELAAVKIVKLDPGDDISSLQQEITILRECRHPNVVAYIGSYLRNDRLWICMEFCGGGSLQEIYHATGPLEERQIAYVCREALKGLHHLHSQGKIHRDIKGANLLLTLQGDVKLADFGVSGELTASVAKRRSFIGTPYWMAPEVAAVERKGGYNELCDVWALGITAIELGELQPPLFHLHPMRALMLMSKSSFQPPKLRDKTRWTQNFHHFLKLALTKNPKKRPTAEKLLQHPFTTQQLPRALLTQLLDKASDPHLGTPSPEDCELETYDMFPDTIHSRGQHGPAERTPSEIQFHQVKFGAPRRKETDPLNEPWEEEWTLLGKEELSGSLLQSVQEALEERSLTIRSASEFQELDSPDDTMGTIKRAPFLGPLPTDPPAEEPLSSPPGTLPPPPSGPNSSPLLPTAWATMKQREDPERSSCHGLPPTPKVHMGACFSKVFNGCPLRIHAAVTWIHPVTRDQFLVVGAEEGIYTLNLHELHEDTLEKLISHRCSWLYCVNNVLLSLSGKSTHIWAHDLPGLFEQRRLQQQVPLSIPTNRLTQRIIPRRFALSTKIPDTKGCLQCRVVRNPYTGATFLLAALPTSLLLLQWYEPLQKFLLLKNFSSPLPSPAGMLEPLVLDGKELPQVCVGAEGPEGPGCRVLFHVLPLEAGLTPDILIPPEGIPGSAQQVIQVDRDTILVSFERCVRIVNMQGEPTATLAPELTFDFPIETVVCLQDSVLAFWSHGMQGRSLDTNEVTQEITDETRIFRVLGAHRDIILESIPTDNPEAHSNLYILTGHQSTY
Test: Apparent affinity (EC50) of energy transfer probes by titration onto live HEK293 cells expressing kinase/Nluc fusions (Table S1)
Settings: MAP4K2, Nluc N; read-out: Probe EC50

| compound | measurement target | EC50 |
| --- | --- | --- |
| CNC(=O)c1ccccc1Nc1nc(Nc2ccc(N3CCN(C(=O)CCOCCOCCOCCOCCNC(=O)CCc4ccc5n4[B-](F)(F)[N+]4=C(c6ccc[nH]6)C=CC4=C5)CC3)cc2)ncc1Cl [Energy Transfer Probe 5] | full-length kinase/Nluc fusion proteins (Homo sapiens, UniProt Q12851) | > 1 µM |

meta.source: paper PMC5814754
